measured.on: HCV protease D168E (Hepatitis C virus genotype 1a, UniProt P27958, L1039E/L1040E/I1043Q/I1044E/L1047Q/C1073S/C1078L/I1098T/Q1106K/P1112Q/L1179I/C1185S/D1194E/N1200S, form not given)
Construct: 6xHis-TEVcutsite-HCV protease 2610 . .; fused on or other part: N-terminal Met-6xHis-TEV site, then an NS4A cofactor peptide ([…], about NS4A 21-33 with C22S and V30N); The peptide is fused in front of NS3 residue 4; The helicase domain is absent; the chain ends at NS3 182
experimental.parameters: HCV protease D168E; 40 nM protease, 7.5 μM substrate, 30° C.; IC50±standard deviation
endpoint.name: IC50 (nM)
Give bare numbers, in nM.

QUERY: Read off the recorded IC50 for `CC(C)(C)OC(=O)N[C@H]1CCCCC/C=C\[C@@H]2C[C@@]2(C(=O)NS(=O)(=O)C2CC2)NC(=O)[C@@H]2C[C@@H](OC(=O)N3Cc4cccc(F)c4C3)CN2C1=O`
RESULT: 38.9

* * *

measured.on: HCV protease D168Y (Hepatitis C virus genotype 1a, UniProt P27958, C1073S/C1078L/C1185S/D1194Y/I1043Q/I1044E/I1098T/L1039E/L1040E/L1047Q/L1179I/N1200S/P1112Q/Q1106K/T1100M/T1173A)
Construct: 6xHis (N); TEV cleavage site (N); NS4a cofactor peptide (fused in the construct, before NS3) (N)
assay.explanation: biochemical
endpoint.name: pIC50
Numbers only, as −log10 of the molar value.

QUERY: Supply pIC50 value. Item: `CC(C)(C)OC(=O)N[C@H]1CCCCC/C=C\[C@@H]2C[C@@]2(C(=O)NS(=O)(=O)C2CC2)NC(=O)[C@@H]2C[C@@H](OC(=O)N3Cc4cccc(F)c4C3)CN2C1=O`
RESULT: 7.46
